# Measurement target: High affinity nerve growth factor receptor (Homo sapiens, UniProt P04629)
# Sequence (P04629 whole entry, the tested form may be a part): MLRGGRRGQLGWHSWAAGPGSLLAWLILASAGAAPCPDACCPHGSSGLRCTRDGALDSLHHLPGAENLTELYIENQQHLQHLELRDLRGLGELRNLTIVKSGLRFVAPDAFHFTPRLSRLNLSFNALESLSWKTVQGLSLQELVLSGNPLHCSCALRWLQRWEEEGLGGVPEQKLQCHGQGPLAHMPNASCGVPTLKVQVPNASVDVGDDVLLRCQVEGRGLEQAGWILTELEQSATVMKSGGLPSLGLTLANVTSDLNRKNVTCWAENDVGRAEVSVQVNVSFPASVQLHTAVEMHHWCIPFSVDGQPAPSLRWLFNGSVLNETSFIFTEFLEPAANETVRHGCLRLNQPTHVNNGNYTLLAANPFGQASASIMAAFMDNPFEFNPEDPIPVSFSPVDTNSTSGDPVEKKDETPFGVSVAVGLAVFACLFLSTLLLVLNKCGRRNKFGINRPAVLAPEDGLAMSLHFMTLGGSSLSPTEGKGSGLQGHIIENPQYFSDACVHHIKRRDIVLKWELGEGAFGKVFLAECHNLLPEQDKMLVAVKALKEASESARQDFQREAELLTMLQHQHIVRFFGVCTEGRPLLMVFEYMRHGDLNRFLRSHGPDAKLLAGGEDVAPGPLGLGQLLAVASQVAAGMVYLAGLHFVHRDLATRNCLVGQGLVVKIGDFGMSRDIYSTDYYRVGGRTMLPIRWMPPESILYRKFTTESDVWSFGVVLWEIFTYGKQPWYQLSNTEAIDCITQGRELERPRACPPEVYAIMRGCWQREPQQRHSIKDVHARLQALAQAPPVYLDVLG
# Test name: Kinase Binding Assay: TrkA binding activity was determined in a TrkA LanthaScreen™ Eu Kinase Binding Assay. 5 nM His-tagged recombinant human TrkA (6HIS tagged cytoplasmic domain from Invitrogen, Catalog No. PV3144) was incubated with 4 nM Alexa-Fluor® Tracer 236 (Invitrogen Cat. No. PV5592), 2 nM biotinylated anti-His (Invitrogen Cat. No. PV6090), and 2 nM europium-labeled Streptavidin (Invitrogen Cat. No. PV5899), in buffer (25 mM MOPS, pH 7.5, 5 mM MgCl2, 0.005% Triton X-100). Three fold serial dilutions of compounds of the invention in DMSO were added to a final percentage of 2% DMSO. After 60-minute incubation at 22° C., the reaction was measured using the EnVision mutlimode plate reader (PerkinElmer) via TR-FRET dual wavelength detection at […]. The percent of control was calculated using a ratiometric emission factor.
Quantity: IC50

With High affinity nerve growth factor receptor (Homo sapiens, UniProt P04629) as the test system, CC1(C)C[C@@H](O)[C@H](NC(=O)Nc2c3c(nn2-c2ccccc2)COC3)c2ccccc21 (relative stereo) showed IC50 of < 100 nM

With High affinity nerve growth factor receptor (Homo sapiens, UniProt P04629) as the test system, CC(C)(C)OC(=O)N1CCO[C@@H](COc2nn(-c3ccccc3)c(NC(=O)N[C@@H]3c4ccccc4C4(CC4)[C@H]3O)c2Cl)C1 showed IC50 of < 100 nM

With High affinity nerve growth factor receptor (Homo sapiens, UniProt P04629) as the test system, Cc1c(-c2ccc(=O)n(C)c2)nn(-c2ccccc2)c1NC(=O)NC1CN(CC(F)(F)F)Cc2ccccc21 (stereo not drawn) showed IC50 of < 100 nM
